settings: buffer; pH 7.4; 200.0 µM
Outcome: criterion met for solubility kinetic of at least 30 µg/mL; criterion not met for anything lower.

{"compound": "Nc1nc(NCc2ccco2)nc(Nc2ccc(F)cc2)c1[N+](=O)[O-]", "classAssignment": "criterion not met"}

Task: Can N#Cc1ccc(C(=O)Nc2nc3ccccc3[nH]2)cc1 be said to have solubility kinetic at or above 30 µg/mL?
Output: criterion not met

Task: Can CC(C)C(=O)Nc1nc2cc3c(cc2s1)OCCO3 be said to have solubility kinetic at or above 30 µg/mL?
Output: criterion met

* * *

Below, each entry is listed alongside its reported solubility kinetic.
conditions: buffer; pH 7.4; 200.0 µM
Use µg/mL as the unit, but write only the number.

A selection of reference data follows.
{"molecule": "Cl.O=c1cc(CN2CCNCC2)nc2sccn12", "solubility kinetic / µg/mL": 44}
{"molecule": "O=C(Nc1ccc(N2CCCCCC2)cc1)c1ccc[nH]1", "solubility kinetic / µg/mL": 18.7}

Task: Report solubility kinetic for CCC(C(=O)OC)n1c(-c2ccccc2)nc2ccccc2c1=O (stereo not drawn) please.
Output: 1.5

Task: Report solubility kinetic for CCc1c(C)nc(N)nc1Cl please.
Output: 24.1

Task: Report solubility kinetic for COc1ccc(CNC(=O)CN2CCN(S(=O)(=O)c3c(C)c(C)cc(C)c3C)CC2)cc1OC please.
Output: 3.5

Task: Report solubility kinetic for CC(=O)c1ccc(NC(=O)C(C)Nc2ccc(Cl)cc2)cc1 (stereo not drawn) please.
Output: 40.9
